Molecular target: T1, human CD20 on cells (human, UniProt P11836 1-297)
T1 construct: whole, on cells; Tumour antigen on the target cells; also called CD20 positive Ramos cells; Ramos cells
T1 sequence (looked up): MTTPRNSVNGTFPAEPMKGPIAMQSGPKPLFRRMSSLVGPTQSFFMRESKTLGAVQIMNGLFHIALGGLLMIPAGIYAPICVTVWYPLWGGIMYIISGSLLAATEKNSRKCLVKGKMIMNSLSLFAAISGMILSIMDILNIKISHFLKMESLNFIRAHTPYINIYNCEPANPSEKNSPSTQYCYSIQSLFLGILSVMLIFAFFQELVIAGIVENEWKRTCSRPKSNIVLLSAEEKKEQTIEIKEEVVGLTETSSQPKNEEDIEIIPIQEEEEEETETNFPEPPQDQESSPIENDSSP
Assay: flow cytometry, Ramos cells
quantityMeasured: pEC50
Numbers only, as −log10 of the molar value.

The value of pEC50 measured for the binder T017000055 (bispecific antibody, entry includes the FLAG3-HIS6 tag; also called 20CD019C07-35GS-T0170055A02-FLAG3-HIS6) EVQLVESGGGLVQPGGSLRLSCTFSGGTFSSYTMGWFRQAPGKEREFVAEVRWGGVTTYSNSLKDRFSISEDSVKNAVYLQMNSLKPEDTAVYYCAAVRQMYMTVVPDYWGQGTLVTVSSGGGGSGGGGSGGGGSGGGGSGGGGSGGGGSGGGGSEVQLVESGGGLVQPGGSLRLSCAASGDVHKINILGWYRQAPAKEREMVAHITIGDATDYADSAKGRFTISRDEAKNMVYLQMNSLKPEDTAVYFCRAYSRIYPYNYWGQGTLVTVSSGAADYKDHDGDYKDHDIDYKDDDDKGAAHHHHHH turned out to be 8.74
